# TARGET_OR_TEST_SYSTEM: T1, Antigen CD66c (CEACAM6; Sino Biological, Inc.) (UniProt P40199 35-320)
# T1 construct: Bought antigen coated on the ELISA plate; construct not described; also called CD66c antigen; CECACAM6
# T1 sequence (looked up): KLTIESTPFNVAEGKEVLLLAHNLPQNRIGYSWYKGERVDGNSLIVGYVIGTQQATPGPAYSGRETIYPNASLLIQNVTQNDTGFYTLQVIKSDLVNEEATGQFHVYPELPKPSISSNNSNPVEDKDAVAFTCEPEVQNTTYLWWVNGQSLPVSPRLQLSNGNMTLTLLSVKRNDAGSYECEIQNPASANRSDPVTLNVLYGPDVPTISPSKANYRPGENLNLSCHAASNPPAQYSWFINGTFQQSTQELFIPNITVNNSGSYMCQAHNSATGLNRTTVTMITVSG
# MEASUREMENT_PROTOCOL: ELISA, coated CEACAM6 100 ng/well, antibody 3333.33 ng/ml
RECORDED_ENDPOINT: OD 450 nm (OD)
Give a bare numeral; the unit OD is implied.

Reference set, count: 5
[[record]]
binder = "recombinant humanized anti-CD66c antibody Protein ID 3058 (Vk8 + VH11) (antibody, human IgG1, V domains shown, also called hu 3058; #86) VH: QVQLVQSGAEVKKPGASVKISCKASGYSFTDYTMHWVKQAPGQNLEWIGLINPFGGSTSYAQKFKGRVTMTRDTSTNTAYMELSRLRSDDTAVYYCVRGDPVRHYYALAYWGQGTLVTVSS VL: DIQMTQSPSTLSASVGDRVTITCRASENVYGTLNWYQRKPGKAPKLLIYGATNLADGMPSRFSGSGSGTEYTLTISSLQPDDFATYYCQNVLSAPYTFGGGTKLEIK"
observed_measurement = 3.18

[[record]]
binder = "recombinant humanized anti-CD66c antibody Protein ID 2938 (Vk5 + VH7) (antibody, human IgG1, V domains shown, also called hu 2938) VH: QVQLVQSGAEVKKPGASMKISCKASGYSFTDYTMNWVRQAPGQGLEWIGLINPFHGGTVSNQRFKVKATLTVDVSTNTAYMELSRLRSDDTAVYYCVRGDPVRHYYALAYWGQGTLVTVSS VL: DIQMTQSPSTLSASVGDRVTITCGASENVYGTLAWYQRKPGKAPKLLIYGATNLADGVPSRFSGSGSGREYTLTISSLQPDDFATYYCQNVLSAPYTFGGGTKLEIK"
observed_measurement = 3.27

[[record]]
binder = "recombinant humanized anti-CD66c antibody Protein ID 3019 (Vk7 + VH10) (antibody, human IgG1, V domains shown, also called hu 3019; #51) VH: QVQLVQSGAEVKKPGASVKVSCKASGYSFTDYTMNWVKQAPGQNLEWIGLINPFHGGTVSNQRFKVKATMTVDVSTNTAYMELSRLRSDDTAVYYCVRGDPVRHYYALAYWGQGTLVTVSS VL: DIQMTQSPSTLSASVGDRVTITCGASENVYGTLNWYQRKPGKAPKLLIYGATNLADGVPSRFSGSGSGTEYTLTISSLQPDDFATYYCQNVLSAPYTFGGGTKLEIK"
observed_measurement = 3.26

[[record]]
binder = "anti-CD66c chimeric antibody 8F5 (antibody, human IgG1, V domains shown, also called chimeric 8F5 antibody; chi 8F5) VH: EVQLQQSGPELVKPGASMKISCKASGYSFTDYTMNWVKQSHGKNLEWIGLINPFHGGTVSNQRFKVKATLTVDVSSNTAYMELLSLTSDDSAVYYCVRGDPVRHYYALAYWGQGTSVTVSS VL: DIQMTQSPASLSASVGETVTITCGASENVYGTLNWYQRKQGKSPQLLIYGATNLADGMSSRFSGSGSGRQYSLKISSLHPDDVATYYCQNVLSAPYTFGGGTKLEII"
observed_measurement = 3.41

[[record]]
binder = "recombinant humanized anti-CD66c antibody Protein ID 3043 (Vk8 + VH6) (antibody, human IgG1, V domains shown, also called hu 3043; #71) VH: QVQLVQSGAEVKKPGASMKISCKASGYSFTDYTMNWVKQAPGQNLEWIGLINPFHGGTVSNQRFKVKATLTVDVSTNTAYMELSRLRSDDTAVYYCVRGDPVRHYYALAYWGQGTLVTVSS VL: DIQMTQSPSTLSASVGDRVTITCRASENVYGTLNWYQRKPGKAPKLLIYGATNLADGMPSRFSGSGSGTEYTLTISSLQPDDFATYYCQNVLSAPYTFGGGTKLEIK"
observed_measurement = 2.95


Lab book: OD 450 nm of recombinant humanized anti-CD66c antibody Protein ID 3007 (Vk7 + VH6) (antibody, human IgG1, V domains shown, also called hu 3007; #43) VH: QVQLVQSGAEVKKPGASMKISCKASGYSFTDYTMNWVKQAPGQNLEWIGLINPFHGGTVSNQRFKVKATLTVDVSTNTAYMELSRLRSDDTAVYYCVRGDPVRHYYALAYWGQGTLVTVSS VL: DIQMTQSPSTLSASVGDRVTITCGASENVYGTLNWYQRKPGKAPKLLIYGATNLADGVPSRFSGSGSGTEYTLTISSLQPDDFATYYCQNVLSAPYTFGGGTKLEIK noted as 3.24

Data credit: patent US20190263905A1
